Reference source: patent US7579353B2

Each item that follows carries a reported solubility at 24 h.
assay: Compound solubility determination (gross and equilibrium solubility; FaSSIF, FeSSIF, pH 7.4 PBS, pH 1.0 0.1N HCl, pH 4.5 sodium citrate); assay type: physicochemical; conditions: fassif, thermodynamic from solid; read-out: Solubility in FaSSIF

Query: Determine its reported solubility at 24 h: "Cc1[nH]c(C)c(-c2ccc(OCc3ccc(C(F)(F)F)cc3)nc2)c(=O)c1Cl"
Result: < 1 µg/mL

Query: Determine its reported solubility at 24 h: "CCCCCCCCCc1cnc(-c2c(C)[nH]c(C)c(Cl)c2=O)nc1"
Result: < 1 µg/mL

Query: Determine its reported solubility at 24 h: "Cc1[nH]c(C)c(-c2ccc(Oc3cccc(C(F)(F)F)c3)cc2)c(=O)c1Cl"
Result: < 1 µg/mL

---

assay: Compound solubility determination (gross and equilibrium solubility; FaSSIF, FeSSIF, pH 7.4 PBS, pH 1.0 0.1N HCl, pH 4.5 sodium citrate); type: physicochemical; settings: FaSSIF (fasted state simulated intestinal fluid), fassif, thermodynamic from solid; read-out: Solubility in FaSSIF
Each item that follows carries a reported solubility at 24 h.

These solved cases illustrate the format of a correct answer.
compound-structure-string	value-observed
Cc1[nH]c(C)c(-c2ccc(-c3ccccc3C(F)(F)F)nc2)c(=O)c1Br	10 to 50 µg/mL
Cc1[nH]c(C)c(-c2ccc(-c3ccccc3F)nc2)c(=O)c1Br	1 to 5 µg/mL
CCCCc1ccc(-c2ccc(-c3c(C)[nH]c(C)c(Br)c3=O)cn2)cc1	10 to 50 µg/mL

Here is another compound to look at.
Query: Determine its reported solubility at 24 h: "Cc1nc(C)c(-c2ccc(-c3ccc(Cl)cc3)cc2)c(O)c1Br"
Result: 5 to 10 µg/mL

---

Each item that follows carries a reported solubility at 24 h.
assay: Compound solubility determination (gross and equilibrium solubility; FaSSIF, FeSSIF, pH 7.4 PBS, pH 1.0 0.1N HCl, pH 4.5 sodium citrate); format: physicochemical; conditions: FeSSIF (fed state simulated intestinal fluid), fessif, thermodynamic from solid; read-out: Solubility in FeSSIF

Query: Determine its reported solubility at 24 h: "Cc1[nH]c(C)c(-c2ccc(Oc3ccc(OC(F)(F)F)cc3)nc2)c(=O)c1Cl"
Result: < 1 µg/mL

---

assay: Compound solubility determination (gross and equilibrium solubility; FaSSIF, FeSSIF, pH 7.4 PBS, pH 1.0 0.1N HCl, pH 4.5 sodium citrate); assay type: physicochemical; conditions: aqueous buffer, thermodynamic from solid; pH 7.4 (PBS); read-out: Solubility at pH 7.4 (PBS)
Each item that follows carries a reported solubility at 24 h.

compound-structure-string	solubility at 24 h
Cc1[nH]c(C)c(-c2ccc(OCc3ccc(C(F)(F)F)cc3)nc2)c(=O)c1Cl	< 1 µg/mL
Cc1[nH]c(C)c(-c2ccc(Oc3cccc(C(F)(F)F)c3)cc2)c(=O)c1Cl	< 1 µg/mL

Here is another molecule to look at.
Query: Determine its reported solubility at 24 h: "CCCCCCCCCc1cnc(-c2c(C)[nH]c(C)c(Cl)c2=O)nc1"
Result: < 1 µg/mL

---

Each item that follows carries a reported solubility at 24 h.
test: Compound solubility determination (gross and equilibrium solubility; FaSSIF, FeSSIF, pH 7.4 PBS, pH 1.0 0.1N HCl, pH 4.5 sodium citrate); assay type: physicochemical; details: simulated gastric fluid, thermodynamic from solid; pH 1 (HCl); read-out: Solubility at pH 1 (HCl)

These solved cases illustrate the format of a correct answer.
compound	value-observed
Cc1[nH]c(C)c(-c2ccc(OCc3ccc(C(F)(F)F)cc3)nc2)c(=O)c1Cl [Example 10]	5 to 10 µg/mL
Cc1[nH]c(C)c(-c2ccc(Oc3cccc(C(F)(F)F)c3)cc2)c(=O)c1Cl [comparator Z]	< 1 µg/mL

Here is another compound to look at.
Query: Determine its reported solubility at 24 h: CCCCCCCCCc1cnc(-c2c(C)[nH]c(C)c(Cl)c2=O)nc1 [Example 50]
Result: 5 to 10 µg/mL

---

Each item that follows carries a reported solubility at 24 h.
experiment: Compound solubility determination (gross and equilibrium solubility; FaSSIF, FeSSIF, pH 7.4 PBS, pH 1.0 0.1N HCl, pH 4.5 sodium citrate); assay type: physicochemical; details: sodium citrate 0.5M solution, aqueous buffer, thermodynamic from solid; pH 4.5 (Na citrate); read-out: Solubility at pH 4.5 (Na citrate)

Query: Determine its reported solubility at 24 h: "Cc1[nH]c(C)c(-c2ccc(-c3ccc(C(F)(F)F)cc3)nc2)c(=O)c1Br"
Result: < 1 µg/mL

Query: Determine its reported solubility at 24 h: "Cc1[nH]c(C)c(-c2ccc(CCc3ccc(C(F)(F)F)cc3)nc2)c(=O)c1Cl"
Result: 10 to 50 µg/mL

Query: Determine its reported solubility at 24 h: "Cc1[nH]c(C)c(-c2ccc(-c3ccc(F)cc3)nc2)c(=O)c1Cl"
Result: 1 to 5 µg/mL

---

assay: Compound solubility determination (gross and equilibrium solubility; FaSSIF, FeSSIF, pH 7.4 PBS, pH 1.0 0.1N HCl, pH 4.5 sodium citrate); format: physicochemical; settings: aqueous buffer, thermodynamic from solid; pH 4.5 (Na citrate); read-out: Solubility at pH 4.5 (Na citrate)
property-label: solubility at 24 h

These solved cases illustrate the format of a correct answer.
molecule	solubility at 24 h
Cc1[nH]c(C)c(-c2ccc(OCc3ccc(C(F)(F)F)cc3)nc2)c(=O)c1Cl [Example 10]	< 1 µg/mL
Cc1[nH]c(C)c(-c2ccc(Oc3cccc(C(F)(F)F)c3)cc2)c(=O)c1Cl [comparator Z]	< 1 µg/mL

Query: Determine its reported solubility at 24 h: CCCCCCCCCc1cnc(-c2c(C)[nH]c(C)c(Cl)c2=O)nc1 [Example 50]
Result: < 1 µg/mL

---

Each item that follows carries a reported solubility at 24 h.
assay: Compound solubility determination (gross and equilibrium solubility; FaSSIF, FeSSIF, pH 7.4 PBS, pH 1.0 0.1N HCl, pH 4.5 sodium citrate); assay type: physicochemical; details: FaSSIF (fasted state simulated intestinal fluid), fassif, thermodynamic from solid; read-out: Solubility in FaSSIF

compound-structure-string	solubility at 24 h
CCCCCCCc1ccc(-c2c(C)[nH]c(C)c(Cl)c2=O)cn1.Cl	10 to 50 µg/mL

Query: Determine its reported solubility at 24 h: "Cc1[nH]c(C)c(-c2ccc(CCc3ccc(C(F)(F)F)cc3)nc2)c(=O)c1Cl"
Result: 10 to 50 µg/mL

---

test: Compound solubility determination (gross and equilibrium solubility; FaSSIF, FeSSIF, pH 7.4 PBS, pH 1.0 0.1N HCl, pH 4.5 sodium citrate); type: physicochemical; details: phosphate buffered saline (PBS), aqueous buffer, thermodynamic from solid; pH 7.4 (PBS); read-out: Solubility at pH 7.4 (PBS)
Each item that follows carries a reported solubility at 24 h.

These solved cases illustrate the format of a correct answer.
compound-structure-string	value-observed
Cc1[nH]c(C)c(-c2ccc(Oc3ccc(OC(F)(F)F)cc3)nc2)c(=O)c1Cl	< 1 µg/mL
Cc1[nH]c(C)c(-c2ccc(-c3ccc(Cl)cc3)nc2)c(=O)c1Br	1 to 5 µg/mL
Cc1[nH]c(C)c(-c2ccc(-c3cc(C(F)(F)F)cc(C(F)(F)F)c3)nc2)c(=O)c1Br	< 1 µg/mL

Here is another compound to look at.
Query: Determine its reported solubility at 24 h: "Cc1[nH]c(C)c(-c2ccc(-c3ccccc3Cl)nc2)c(=O)c1Br"
Result: 1 to 5 µg/mL

---

Each item that follows carries a reported solubility at 24 h.
experiment: Compound solubility determination (gross and equilibrium solubility; FaSSIF, FeSSIF, pH 7.4 PBS, pH 1.0 0.1N HCl, pH 4.5 sodium citrate); type: physicochemical; conditions: sodium citrate 0.5M solution, aqueous buffer, thermodynamic from solid; pH 4.5 (Na citrate); read-out: Solubility at pH 4.5 (Na citrate)

These solved cases illustrate the format of a correct answer.
compound	value-observed
Cc1[nH]c(C)c(-c2ccc(-c3ccc(Cl)cc3)nc2)c(=O)c1Br [Example 19]	1 to 5 µg/mL
Cc1[nH]c(C)c(-c2ccc(-c3ccc4c(c3)OCO4)nc2)c(=O)c1Br [Example 53]	5 to 10 µg/mL
Cc1[nH]c(C)c(-c2ccc(-c3ccccc3F)nc2)c(=O)c1Br [Example 23]	5 to 10 µg/mL
Cc1[nH]c(C)c(-c2ccc(-c3ccc(C(F)(F)F)cc3C(F)(F)F)nc2)c(=O)c1Br [Example 24]	< 1 µg/mL
Cc1nc(C)c(-c2ccc(-c3ccc(Cl)cc3)cc2)c(O)c1Br [comparator X]	< 1 µg/mL

Query: Determine its reported solubility at 24 h: CCCCc1ccc(-c2ccc(-c3c(C)[nH]c(C)c(Br)c3=O)cn2)cc1 [Example 26]
Result: < 1 µg/mL

Query: Determine its reported solubility at 24 h: Cc1[nH]c(C)c(-c2ccc(-c3ccccc3F)nc2)c(=O)c1Cl [Example 37]
Result: 10 to 50 µg/mL

Query: Determine its reported solubility at 24 h: Cc1[nH]c(C)c(-c2ccc(-c3ccc(F)cc3)nc2)c(=O)c1Br [Example 22]
Result: 1 to 5 µg/mL

Query: Determine its reported solubility at 24 h: Cc1[nH]c(C)c(-c2ccc(-c3cc(C(F)(F)F)ccc3F)nc2)c(=O)c1Cl [Example 56]
Result: < 1 µg/mL

Query: Determine its reported solubility at 24 h: Cc1[nH]c(C)c(-c2ccc(-c3ccccc3Cl)nc2)c(=O)c1Br [Example 21]
Result: 5 to 10 µg/mL

Query: Determine its reported solubility at 24 h: Cc1[nH]c(C)c(-c2ccc(-c3cc(C(F)(F)F)cc(C(F)(F)F)c3)nc2)c(=O)c1Br [Example 25]
Result: < 1 µg/mL
